// reported TGI per item
# System: RXF 393 renal
# test_summary: NCI tumour cell line growth inhibition, 48 h
measured_metric: TGI

1) CC(C)(CN1CCCCC1)C(=O)CC(SCCN)c1ccc(Cl)cc1 (stereo unspecified) = 5.94 µM
2) CC(=O)OCC1OC([Se-])C(OC(C)=O)C(OC(C)=O)C1OC(C)=O.N#CCC[PH+](CCC#N)CCC#N.[Au+] (stereo unspecified) = > 100 µM
3) NC1=NC2=C(CCCC2)C(c2cccs2)S1 (stereo unspecified) = > 100 µM
4) CCN(CC)C(=S)N/N=C/c1cc(OC)ccc1O = > 100 µM
5) Brc1ccc(Nc2nc3ccccc3nc2Nc2ccc(Br)cc2)cc1 = 6.38 µM
6) O=C1C=CC(=O)N1c1ccc(I)cc1 = 33.6 µM
7) COc1cc(C2C(C(=O)O)=C(COC(C)=O)Oc3cc4c(cc32)OCO4)cc(OC)c1OC(C)=O (stereo unspecified) = > 100 µM
8) c1ccc(-c2cc(-c3ccncc3)cc(-c3ccncc3)n2)cc1 = > 100 µM
9) CC(Cc1cccc2c1Nc1ccccc1S2)N(C)CCO (stereo unspecified) = > 100 µM
10) CCc1ccc(Nc2cc(=O)n(C)c(SCc3ccccc3)n2)cc1 = > 100 µM
11) O=C1CCN2C(=N1)Sc1ccccc12 = > 100 µM

* * *

# Tested on: LOX IMVI melanoma
# test_summary: NCI tumour cell line growth inhibition, 48 h
measured_metric: TGI

1) CCCCN(CCCC)CC(C(=O)Nc1ccc([N+](=O)[O-])cc1[N+](=O)[O-])/C(C)=N\NC(=O)C[N+](C)(C)C (stereo unspecified) = > 100 µM
2) O=C(O)c1cccc(OCCOc2cccc(C(=O)O)c2[N+](=O)[O-])c1[N+](=O)[O-] = > 100 µM
3) CC[C@@H]1CC[C@@H]2[C@H](CC[C@]3(C)[C@@H](OC(C)=O)CC[C@@H]23)[C@H]1C(=O)OC = 35.6 µM
4) CN(C)c1ccc(/C=c2\sc3nnc(-c4cccnc4)n3c2=O)cc1 = > 100 µM
5) NC(=O)CCc1ccccc1Oc1nccc(-c2c(-c3ccc(F)cc3)ncn2C2CCNCC2)n1 = > 25 µM
6) COc1cc2cc3c4cc(OC)c(OC)cc4cc[n+]3c(C)c2cc1OC = > 100 µM

* * *

# Test system: A549 NSCLC
# test_summary: NCI tumour cell line growth inhibition, 48 h
measured_metric: TGI

1. O=C(Cc1ccccc1)NN1C(=O)C(Cl)C1c1cccc([N+](=O)[O-])c1 (stereo unspecified) = > 100 µM
2. CC(Cc1cccc2c1Nc1ccccc1S2)N(C)CCO (stereo unspecified) = > 100 µM
3. Cc1cc(C)c(NC(=O)/C=C/c2ccccc2)c(C)c1 = > 100 µM
4. CN1CC=C(c2cccn2C)CC1 = > 100 µM
5. CCOC(=O)/C(=C/c1ccccc1Br)P(=O)(OCC)OCC = 10.7 µM
6. C=C1c2[nH]c3ccccc3c2CC(C(=O)O)N1C(O)c1ccc(S(=O)(=O)O)cc1 (stereo unspecified) = > 100 µM
7. Cc1cc(C(O)(c2ccc(Nc3ccccc3)cc2)c2ccc(Nc3ccc(S(=O)(=O)O)cc3)cc2)ccc1N (stereo unspecified) = 3.25 µM
8. C#CCn1c(=O)c2cccnc2n(CC#C)c1=O = > 100 µM
9. c1ccc2cc(CNCCCCNCCCNCc3ccc4ccccc4c3)ccc2c1 = 4.25 µM
10. Cc1ccc(C(=O)N2CCCCC2)cc1N=NN(C)C = > 100 µM
11. CCc1cccc(CC)c1NC(=O)CC1SC(N)=NC1=O (stereo unspecified) = > 100 µM

* * *

// reported TGI per item
# Tested on: IGROV1 ovarian
# test_summary: NCI tumour cell line growth inhibition, 48 h
measured_metric: TGI

1. C/C(=N\O)c1cccc(Nc2cc(-c3ccccc3)nc3c(O)cccc23)c1 = 18 µM
2. COc1cc2c3c(n(CCCN4CCCNCC4)c(=O)c2cc1OC)-c1cc2c(cc1C3=O)OCO2 = 21.5 µM
3. O=C(Cc1ccccc1)N/N=C(/c1nc2ccc([N+](=O)[O-])cc2[nH]c1=O)C(O)c1ccc(C(O)/C(=N/NC(=O)Cc2ccccc2)c2nc3ccc([N+](=O)[O-])cc3[nH]c2=O)cc1 (centres undefined) = > 100 µM
4. N#C/C(=C\c1ccc(F)cc1)n1nc2cccc(F)c2n1 = > 100 µM

* * *

# Tested on: A498 renal
# test_summary: NCI tumour cell line growth inhibition, 48 h
measured_metric: TGI (µM)

1) COC1=CC(=O)c2c(cc3c(c2O)-c2c(OC)cc4cc5c(c(O)c4c2OC(=O)CC(C)(O)C3)C(=O)CC(C)(O)C5)C1=O (stereo not given) = 4.42
2) N#C/C(=C\c1ccc(F)cc1)n1nc2cccc(F)c2n1 = 7.25
3) O=C1Nc2ccccc2/C1=C\c1c(-c2ccccc2)nc2n1CCS2 = 68.8

* * *

# System: EKVX NSCLC
# test_summary: NCI tumour cell line growth inhibition, 48 h; in the data active means GI50 below about 0.43 µM; inactive means the rest
Outcome codes: active, inactive

1) O=C1c2cccnc2C(=O)c2c1c(C(=O)OCCc1ccccn1)c1ccccn21 = active
2) O=C(c1cccs1)c1nc2cc(Cl)ccc2[n+]([O-])c1C(F)(F)F = inactive
3) O=C1C(=C([O-])c2ccccc2)C(=O)c2ccccc21.O=C1C(=C([O-])c2ccccc2)C(=O)c2ccccc21.[Co+2] = inactive
4) NCCCNc1nc2ccc(Cl)cc2c2c(=O)c3cc(F)ccc3sc12 = inactive
5) N#Cc1c2ccccc2c2nnc3ccccc3n12 = inactive

* * *

// reported TGI per item
# Test system: LXFL 529 NSCLC
# test_summary: NCI tumour cell line growth inhibition, 48 h
measured_metric: TGI

1) CN1C(=O)CN2C(Cl)(Cl)C2(c2ccccc2)c2cc(Cl)ccc21 (stereo not given) = > 100 µM
2) C=C(COC(C)=O)CC(/C=C(\C)CC/C=C(\C)CO)OC(C)=O (stereo not given) = > 100 µM
3) O=[N+]([O-])c1ccc(CN=C2NNS(=O)(=O)c3ccccc32)cc1 = > 100 µM
4) CCC1c2cc3n(c(=O)c2COC1O)Cc1c-3nc2ccccc2c1Cl (stereo not given) = > 100 µM
5) CC1=NC=C(O)c2ccccc2O1 = > 100 µM
6) CCc1nc2ccccc2c(=O)n1/N=C(\N=Nc1ccc(Cl)cc1)c1ccccc1 = 50.8 µM
7) O=c1c(O)cc2c(O)oc3c(=O)c(O)c(O)c4c(O)oc1c2c43 = > 100 µM
8) CN(C)CCN(C)C(=O)C1CCCN1C(=O)OCc1ccccc1 (stereo not given) = > 100 µM
9) N#Cc1ccc(C(C2C(=O)NC(=O)NC2=O)C2C(=O)NC(=O)NC2=O)cc1 = > 100 µM
10) O=C(O)CCC1CCc2cccc(OCC(=O)O)c2C1=O (stereo not given) = > 100 µM
11) CC(=O)OCC1OC([Se-])C(OC(C)=O)C(OC(C)=O)C1OC(C)=O.N#CCC[PH+](CCC#N)CCC#N.[Au+] (stereo not given) = 37.3 µM
12) OCCCc1cnco1 = > 100 µM
13) N#Cc1c(-c2ccccc2)cc(-c2cccs2)c(C#N)c1N = > 100 µM
14) CCCCN(CCCC)CC(C(=O)Nc1ccc([N+](=O)[O-])cc1[N+](=O)[O-])/C(C)=N\NC(=O)C[N+](C)(C)C (stereo not given) = > 100 µM
15) Fc1ccc(C2SCc3nc4ccccc4n32)cc1F (stereo not given) = > 100 µM
16) O=[N+]([O-])c1ccc(/C(Cl)=C/c2ccc(/C=C(\Cl)c3ccc([N+](=O)[O-])cc3[N+](=O)[O-])cc2)c([N+](=O)[O-])c1 = > 100 µM
17) O=C(Cc1ccccc1)N/N=C(/c1nc2ccc([N+](=O)[O-])cc2[nH]c1=O)C(O)c1ccc(C(O)/C(=N/NC(=O)Cc2ccccc2)c2nc3ccc([N+](=O)[O-])cc3[nH]c2=O)cc1 (stereo not given) = > 100 µM
18) CCOC(=O)Nc1ccc2c(c1)N(C(=O)CCN(CC)CC)c1ccccc1S2 = 42.5 µM
19) CCCCCCCCCC/C=C/C=O = > 100 µM
20) CCCCCC#COC1CC(C)CC[C@@H]1C(C)C (stereo not given in full) = > 100 µM

* * *

# Tested on: K-562 leukemia
# test_summary: NCI tumour cell line growth inhibition, 48 h
// reported TGI per item
measured_metric: TGI

1. CCCCCCc1cc2cc(-c3csc(/C=C/c4ccccc4)n3)c(=O)oc2cc1O = 80.3 µM
2. CC(C)CC(NC=O)C(=O)NC(Cc1ccccc1)NC(=O)CNC(=O)C(C)NC(=O)C(N)Cc1ccc(O)cc1 (stereo not drawn) = > 100 µM
3. CCOC(=O)c1cn(CC)c2ccc3ccsc3c2c1=O = > 100 µM
4. CN1CC=C(c2cccn2C)CC1 = > 100 µM
5. NC(=N\N=C/c1ccc(Cl)cc1Cl)/C(N)=N\N=C/c1ccc(Cl)cc1Cl = > 100 µM
6. CCCCCCCCCCCCCCCC(=O)Nc1ccn(C2CCC(COP(=O)(O)OCC3OC(n4cc(F)c(=O)[nH]c4=O)CC3OC(C)=O)O2)c(=O)n1 (stereo not drawn) = > 38.2 µM
7. O=C1NC(=O)C2C1C1C=C3c4ccccc4N(c4ccccc4)C32[C@H]2C(=O)NC(=O)[C@@H]12 (stereo partly drawn) = > 100 µM
8. O=C(O)c1cn(C2CC2)c2cc(N3CCN(C(=O)Nc4nc(-c5ccc(Br)cc5)cs4)CC3)c(F)cc2c1=O = > 100 µM
